Sourced from a melting point compilation (Tetko et al.; mined from patent text by program, amines drawn as free bases though some values may be those of a salt)

Parameter measured: melting point

Compound | melting point
CN(C)CCCC(=O)Cc1ccc2c(c1)Cc1cccnc1O2 | 76 to 78 °C
Cc1cc(-c2ccc(Cl)cc2)cn2c(-c3nc(-c4cccc(S(N)(=O)=O)c4)no3)cnc12 | 301 °C
CC(C)(C)OC(=O)COC(=O)CCc1c(OCC(=O)OC(C)(C)C)ccc2ccc(OCC(=O)OC(C)(C)C)cc12 | 118 °C

Quick one: melting point for CC(C)c1cc(Oc2ccccc2)cc(C2CCCCC2)c1N ? 108 to 110 °C

Quick one: melting point for COC(=O)c1c(C)c([N+](=O)[O-])cc2nc(Cl)c(Cl)nc12 ? 155 to 157 °C

----------
Parameter measured: melting point

Example entries begin here.
Compound | Parameter measured | Test value
CC(=O)c1ccc(-n2c(-c3sc(Nc4ccc(Cl)cc4)nc3-c3ccccc3)nc3ccccc3c2=O)cc1 | melting point | 218 to 220 °C
Oc1ccc(-c2ccc3c(Cl)c(O)ccc3n2)cc1 | melting point | 215 to 216 °C
Cc1c(C(=O)Nc2ccc(SCCCN3CCCCC3)c(C#N)c2)cnn1-c1ccc(Cl)cc1 | melting point | 142 °C

Quick one: melting point for COc1ccc(-n2nc(-c3ccc(OC)c(CCC(=O)O)c3OC)cc2-c2ccc(Cl)cc2)cc1 ? 100 to 101 °C

Quick one: melting point for O=C1CCC(N2Cc3c(OCc4ccc5occc5c4)cccc3C2=O)C(=O)N1 (centres undefined) ? 168 to 170 °C

Quick one: melting point for COc1ccc(C(=O)Cc2cccc(C(F)(F)F)c2)cc1 ? 94 to 95 °C

Quick one: melting point for CCCc1c(N)ccc2c(=O)cc(C(=O)OCC)oc12 ? 84 to 87 °C

Quick one: melting point for CN1C(=O)[C@H](NC(=O)/C=C/c2ccc(F)cc2F)N=C(c2ccccc2)c2ccccc21 ? 121 to 123 °C

----------
The following molecules are listed with their measured melting point values.

Example entries begin here.
Molecule | Parameter measured | Test value
COc1ccc(C(C#Cc2ccccc2)Cc2noc(C(F)(F)F)n2)cc1OC1CCCC1 (racemic) | melting point | 96 to 98 °C
COC(=O)c1cc2ccc3c(c2c(-c2ccc4c(c2)OCO4)c1C(=O)OC)OCO3 | melting point | 157 to 159 °C
CCCCCCCCSC(CCCCC)CCn1ccnc1 (stereo not given) | melting point | 105 to 108 °C
Cc1oc2c(C=O)cccc2c1C | melting point | 56 to 58 °C

Quick one: melting point for CCCCNC(=S)C(C)Oc1ccc2oc3cc(Cl)ccc3c2c1 (stereo not given) ? 101 to 104 °C

----------
The following compounds are listed with their measured melting point values.

Example entries begin here.
Compound | Parameter measured | Test value
CCC(CC)Oc1nc(C)nc(Cc2c(C)cc(C)cc2C)c1C | melting point | 82 to 84 °C
COc1cc(OC)cc(N2CCN(C(=O)Nc3cc(-c4ccccn4)nc4ccccc34)CC2)c1 | melting point | 97 to 98 °C
CC(C)(NC(N)=O)C(=O)NCCO[N+](=O)[O-] | melting point | 98 to 100 °C
CC1(C)CCC(C)(C)c2cc3cc(-c4ccc(C(=O)O)c(Cl)c4)ccc3cc21 | melting point | 213 to 215 °C
COc1ccc(C=CC(=O)c2ccc(O)c(CC(=O)O)c2)cc1OC | melting point | 225 °C

Quick one: melting point for CN1CCN(C(=O)CCC(=O)c2ccc3[nH]c4ncc(Cl)cc4c3c2)CC1 ? 233 °C

Quick one: melting point for CC(C)CC1(C)C(=O)N(Cc2ccccc2)CCN1Cc1ccccc1 (stereo unspecified) ? 98 to 101 °C

Quick one: melting point for CCCc1nc2c(N)nc3ccccc3c2n1CCCC(C)N(OC)C(=O)Nc1ccccc1 (stereo unspecified) ? 140 to 142 °C

Quick one: melting point for OCc1c(F)c(Cl)c(F)c(Cl)c1F ? 67 to 68 °C

Quick one: melting point for O=C(O)COc1ccc2c(-c3ccc(Cl)cc3F)noc2c1Cl ? 226 to 227 °C

----------
Parameter measured: melting point

Compound | melting point
COc1ccc2c(c1OC(C)=O)N=CC1CCCN1C2=O (stereo not given) | 144 to 146 °C
CC(CC#N)n1nnc2cc3c(=O)n(C4CC4)nnc3cc2c1=O (stereo not given) | 240 to 242 °C
CC(C)(C)c1ccc(C(=O)NN=Cc2c(O)ccc3ccccc23)cc1 | 259 to 261 °C
CC(=O)OC1CSC(Oc2cccc(-c3ccc(C)cn3)c2)C(OC(C)=O)C1OC(C)=O (stereo not given) | 140 °C
CCc1noc(-c2ccc(C)cc2)c1-c1ccc(S(N)(=O)=O)cc1 | 191 °C

Quick one: melting point for Clc1ccc2c(c1)CCc1cccnc1C2=C1CCN(Cc2cccnc2Cl)CC1 ? 56.6 to 60.2 °C

Quick one: melting point for CC1CC(C)CN(Cc2ccc(C=CC(=O)Nc3ccc(-c4ccc(Cl)cc4)cc3)cc2)C1 (stereo not given) ? 217 to 218 °C

Quick one: melting point for Cc1c(NC(=O)c2ccc(C(C)(C)C)cc2)nc2ccc(-n3ccnc3)nn12 ? 302 to 303 °C

Quick one: melting point for COc1cc(OC)cc(C(=CC#N)c2ccc3ncccc3c2)c1 ? 142 to 144 °C

Quick one: melting point for COc1ccc(Oc2c(-c3ccc(S(C)(=O)=O)cc3)cnn(-c3cccc(Cl)c3)c2=O)cc1 ? 182 to 184 °C

Quick one: melting point for O=Cc1ccc(=O)[nH]c1 ? 222 to 224 °C

Quick one: melting point for CSc1ccc(C)cc1C(N)=S ? 160 °C

Quick one: melting point for CCC(O)(Cn1cncn1)C(c1ccc(Cl)cc1)n1cncn1 (stereo not given) ? 60 to 64 °C

Quick one: melting point for O=C1c2cccc3c2N(C(=O)C2CCCN12)C(c1ccccc1)O3 (stereo not given) ? 160 to 163 °C

----------
Parameter measured: melting point

Example entries begin here.
Molecule | melting point
NC1SC2=CC=CC2=C1C(=O)c1ccc(Br)cc1 (centres undefined) | 205 to 206 °C
Cc1cccc(C)c1NC(=O)CN1CCNC(C)C1c1ncnc2sccc12 (centres undefined) | 184 to 185 °C
Cc1ccccc1C(=O)Nc1ccc(C(=O)N2Cc3ccc(Cl)n3Cc3ccccc32)cc1 | 185 to 187 °C
Cc1cccc(-c2nc(Cl)cc(Cl)n2)c1 | 80 to 81 °C
O=C(CN1CS(=O)(=O)CC1=O)N1CCN(C(c2ccccc2)c2ccccc2)CC1 | 209 to 211 °C

Quick one: melting point for CCCCc1oc2ccccc2c1C(O)c1ccc(-c2cc(Br)c(O)c(Br)c2)cc1 (centres undefined) ? 60 to 62 °C

Quick one: melting point for CNS(=O)(=O)c1cc2ccccc2cc1CC(=O)O ? 185 to 186 °C

Quick one: melting point for CCOC(=O)C1=C(N)N=C(OCC)C(C(=O)OCC)C1c1ccc(C)cc1 (centres undefined) ? 119 °C

Quick one: melting point for CC1(C)C(=O)Nc2ccc(-c3ccc(C#N)s3)cc21 ? 255 to 256 °C

Quick one: melting point for Cc1ccc(Cc2cnc(NCCCNc3ncccc3C)[nH]c2=O)cn1 ? 119 to 123 °C

Quick one: melting point for CCn1nnn(-c2cc(OCOC)c(Cl)cc2Cl)c1=O ? 112 to 113 °C

----------
The following compounds are listed with their measured melting point values.

Compound | melting point
CCOC(=O)c1ccccc1OCNC(=O)CCCCCNC(=O)OC(C)(C)C | 120 to 121 °C
CC(C)(C)NC(=O)c1nn(-c2c(F)cc(F)cc2F)c2c1C1CCC2C1 (stereo not given) | 142 to 146 °C
CCOC(=O)Cc1ccc2oc3ccccc3c(=O)c2c1 | 97 to 98 °C
CN1C2CCC1CN(c1ccc(C#Cc3ccc(N)cc3)nn1)C2 | 204 to 210 °C
COc1nc(C)nc(N(C)C(=O)NS(=O)(=O)c2ccccc2OC(F)(F)F)n1 | 162 °C

Quick one: melting point for CCOCCNC(=O)n1cc(F)c(=O)[nH]c1=O ? 134 to 135 °C

Quick one: melting point for C=CCOc1nc(SC)nc(N2CCc3ccccc3CC2)c1C#N ? 103 to 105 °C

Quick one: melting point for O=c1[nH]c2nc3ccccc3n2c(=O)n1CCc1ccccc1 ? 298 °C

Quick one: melting point for CC(C)(C)c1cc(-c2nn(CCC(N)=O)c3ncccc23)cc(C(C)(C)C)c1O ? 154 to 157 °C

Quick one: melting point for N#CC(C(=O)Nc1ccccn1)C(=O)c1nn(-c2ccccc2)c2c1CSc1ccccc1-2 (stereo not given) ? 258 to 260 °C

----------
Parameter measured: melting point

Quick one: melting point for CC(C)c1cccc(C(C)C)c1-n1nn[nH]c1=O ? 177 to 178 °C

----------
The following compounds are listed with their measured melting point values.

Example entries begin here.
Compound | melting point
CCCCCCCCOc1ccc2c(c1OCCCCCCCC)C(=O)c1ccccc1C2=O | 91 to 94 °C
COc1ccc(C2C3=C(COC3=O)Nc3ccc4cc(C)[nH]c4c32)cc1O (stereo not given) | 293 to 294 °C
CCCC(=O)c1cc2c(s1)CCC1CC(=O)N(c3ccc(Cl)cc3)N=C21 (stereo not given) | 157 to 159 °C
CCOCc1nc2c(NC(C)=O)nc3ccccc3c2n1CC(C)(C)NS(C)(=O)=O | 75 to 76 °C
OC(c1cccs1)C1CCN(CCc2ccccc2)CC1 (stereo not given) | 123 to 125 °C
COC(=O)c1ccc(-c2cc(-c3ccc(Cl)cc3)on2)cc1 | 225 to 226 °C
CSc1nc(-c2ccc(C(F)(F)F)cc2)c2cc(C)sc2n1 | 113 °C
CSCC12CCC(=CF)C=C1CCC1C3CCC(=O)C3(C)CCC12 (stereo not given) | 146 to 147 °C

Quick one: melting point for COc1ccc(-c2cccc3c2C2(COc4cc5c(cc42)OCCO5)C(=O)N3Cc2ccccn2)cc1 (stereo not given) ? 205 to 206 °C

Quick one: melting point for N#CCCc1cccc(O)c1 ? 64 to 66 °C
